- Test system: FGFR2 in SUM52 cells (phospho-ERK1/2)
- protocolDetails: Drug washout Western blot assay, SUM52 cells
- Format: cell-based
- assayContext: SUM52; 100 nM, 30 min, washout prior to FGF-stimulation
metricName: phospho-ERK1/2 after extensive drug washout

>  <molecule>
CNc1ncc2c(n1)N([C@H]1CCN(C(=O)/C=C/CN(C)C)C1)C(=O)N(c1c(Cl)c(OC)cc(OC)c1Cl)C2 [Compound 103]

>  <targetOrTestSystem>
FGFR2 in SUM52 cells (phospho-ERK1/2)

>  <valueReported>
restoration

$$$$
>  <molecule>
COc1cc(OC)c(Cl)c(N2Cc3cnc(NC(C)C)nc3N([C@H]3CCN(C(=O)/C=C/CN(C)C)C3)C2=O)c1Cl [Compound 104]

>  <targetOrTestSystem>
FGFR2 in SUM52 cells (phospho-ERK1/2)

>  <valueReported>
restoration

$$$$
>  <molecule>
CCN(CC)CCCCNc1ncc2cc(-c3cc(OC)cc(OC)c3)c(NC(=O)NC(C)(C)C)nc2n1 [PD173074, reference compound]

>  <targetOrTestSystem>
FGFR2 in SUM52 cells (phospho-ERK1/2)

>  <valueReported>
restoration

$$$$

---

Listed next: entries and their corresponding Hypoxic Cytotoxicity Ratio (HCR), SUM52.
- Tested on: SUM52 cells
- protocolDetails: Oxic and anoxic anti-proliferative activity of the prodrugs
- assayContext: ratio of oxic and anoxic IC50
metricName: Hypoxic Cytotoxicity Ratio (HCR), SUM52

>  <compound>
COc1cc(OC)c(Cl)c(N2Cc3cnc(NC4CCOCC4)nc3N(C3CCN(C(=O)/C=C/C[N+](C)(C)Cc4c([N+](=O)[O-])ncn4C)CC3)C2=O)c1Cl.O=C([O-])C(F)(F)F [Compound 203]

>  <metricName>
Hypoxic Cytotoxicity Ratio (HCR), SUM52

>  <valueReported>
26

$$$$
>  <compound>
COc1cc(OC)c(Cl)c(N2Cc3cnc(Nc4ccccc4)nc3N(C3CCN(C(=O)/C=C/C[N+](C)(C)Cc4c([N+](=O)[O-])ncn4C)CC3)C2=O)c1.[Br-] [Compound 217]

>  <metricName>
Hypoxic Cytotoxicity Ratio (HCR), SUM52

>  <valueReported>
7

$$$$
>  <compound>
COc1cc(OC)c(Cl)c(-c2cc3cnc(Nc4ccccc4)nc3n(C3CCN(C(=O)/C=C/C[N+](C)(C)Cc4c([N+](=O)[O-])ncn4C)CC3)c2=O)c1Cl.[Br-] [Compound 211]

>  <metricName>
Hypoxic Cytotoxicity Ratio (HCR), SUM52

>  <valueReported>
16

$$$$
>  <compound>
COc1cc(OC)c(Br)c(-c2cc3cnc(Nc4ccccc4)nc3n(C3CCN(C(=O)/C=C/C[N+](C)(C)Cc4c([N+](=O)[O-])ncn4C)CC3)c2=O)c1Br.[Br-] [Compound 212]

>  <metricName>
Hypoxic Cytotoxicity Ratio (HCR), SUM52

>  <valueReported>
8

$$$$
>  <compound>
COc1ccc(Nc2ncc3c(n2)N(C2CCN(C(=O)/C=C/C[N+](C)(C)Cc4c([N+](=O)[O-])ncn4C)CC2)C(=O)N(c2c(Cl)c(OC)cc(OC)c2Cl)C3)cc1.[Br-] [Compound 206]

>  <metricName>
Hypoxic Cytotoxicity Ratio (HCR), SUM52

>  <valueReported>
8

$$$$

---

- protocolDetails: Murine plasma pharmacokinetics assay
- Assay type: in vivo, NIH-III nude mice
- assayContext: female, NIH-III nude, mouse, ip; 80 mg/kg intraperitoneal, plasma, model fit

>  <inputSmiles>
COc1cc(OC)c(Cl)c(N2Cc3cnc(Nc4ccccc4)nc3N(C3CCN(C(=O)/C=C/C[N+](C)(C)Cc4c([N+](=O)[O-])ncn4C)CC3)C2=O)c1Cl.[Br-]

>  <AUC(0-inf)>
606 µM·h

$$$$
